molecular target: catA2 (catechol 1,2-dioxygenase) (Pseudomonas putida); test: catA2 activity assay: increase in cis, cis-muconate from catechol measured at A256 with purified His-tagged enzyme; details: at a concentration of 0.05 mM catechol; cis, cis-muconate 0 to 0.2 mM
OBSERVED_PROPERTY: IC50 (µM)
Give the number; µM is assumed, so skip it.

get_value(item= O=C(O)/C=C\C=C/C(=O)O [cis, cis-muconate] , readout=IC50) returns 139

====

Biological target: catA2 (catechol 1,2-dioxygenase) (Pseudomonas putida)
Sequence (Q88I35 1-304): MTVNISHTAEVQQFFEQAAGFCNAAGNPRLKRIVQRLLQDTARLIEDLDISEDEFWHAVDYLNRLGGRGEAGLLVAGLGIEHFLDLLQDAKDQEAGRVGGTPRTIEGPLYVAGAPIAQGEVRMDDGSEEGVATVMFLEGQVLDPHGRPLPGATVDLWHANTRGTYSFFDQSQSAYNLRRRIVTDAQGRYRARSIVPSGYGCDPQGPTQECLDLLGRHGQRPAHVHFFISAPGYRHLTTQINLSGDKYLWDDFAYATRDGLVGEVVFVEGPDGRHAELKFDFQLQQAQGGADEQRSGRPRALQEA
Test: catA2 activity assay: increase in cis, cis-muconate from catechol measured at A256 with purified His-tagged enzyme
Settings: calculated from Km and IC50 using the Cheng-Prusoff equation
OBSERVED_PROPERTY: pKi
Schema: pKi number; meaning minus log10 of the concentration expressed in molar units.

get_value(item= O=C(O)/C=C\C=C/C(=O)O [cis, cis-muconate] , readout=pKi) returns 5.55

Hey, just so you know, these numbers are from patent EP2562249A1.
